Provide the reported pIC50 of each item.
# testTarget: human recombinant MAGL (Homo sapiens (Human))
# Sequence (Q99685 whole entry): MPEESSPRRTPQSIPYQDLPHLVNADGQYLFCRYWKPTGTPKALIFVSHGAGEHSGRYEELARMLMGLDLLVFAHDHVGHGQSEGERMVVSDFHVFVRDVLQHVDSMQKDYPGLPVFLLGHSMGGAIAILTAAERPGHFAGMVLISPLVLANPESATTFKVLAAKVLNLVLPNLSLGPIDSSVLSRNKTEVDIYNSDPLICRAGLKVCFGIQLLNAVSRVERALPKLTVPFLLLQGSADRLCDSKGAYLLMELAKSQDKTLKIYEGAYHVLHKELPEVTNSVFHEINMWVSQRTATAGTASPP
# testProtocol: In vitro inhibition of MAGL activity (inhibitor screening kit, 4-nitrophenylacetate)
# setupConditions: human recombinant MAGL
# Source text: The inhibitory effect of the compounds on activity of human recombinant MAGL was also studied using a commercial inhibitor screening kit (Cayman Chemicals). In brief, MAGL hydrolyzes 4-nitrophenylacetate resulting in a yellow product, 4-nitrophenol with an absorbance at 405-412 nm, while the inhibitor will inhibit the MAGL activity and thus reduce the yellow signal. The absorbance of the yellow product can be analyzed using the plate reader. […]
pIC50: −log10 of the molar value.

>>> result("O=C(NCc1ccccc1)Oc1cccc(-c2cncc(-c3nnn[nH]3)c2)c1")
"< 5.00"
>>> result("COc1ccc(OC(=O)NC2CCCCC2)cc1-c1cncc(-c2ccno2)c1")
"< 5.00"
>>> result("CN(C)c1ccc(OC(=O)NCc2ccccc2)cc1-c1cncc(-c2nnco2)c1")
"< 5.00"
>>> result("O=C(NC1CCCCCC1)Oc1cccc(-c2cncc(-c3nnn[nH]3)c2)c1")
"< 5.00"
>>> result("O=C(NCc1ccccc1)Oc1cccc(-c2cncc(-c3nccs3)c2)c1")
"< 5.00"

# batch size: 3; output pIC50 per entry
1. O=C(NCc1ccc2ccccc2c1)Oc1cccc(-c2cncc(-c3ncn[nH]3)c2)c1
2. O=C(NCC1CCCCC1)Oc1cccc(-c2cncc(-c3ccco3)c2)c1
3. O=C(NC1CCCCC1)Oc1cccc(-c2cncc(C(F)(F)F)c2)c1

Result:
["~5.00", "~5.00", "< 5.00"]

Request: Which pIC50 is reported for this compound? COc1ccc(OC(=O)NC2CCCCC2)cc1-c1cncc(-c2nnn[nH]2)c1
Result: < 5.00

====

Provide the reported pIC50 of each item.
# testTarget: human recombinant MAGL (Homo sapiens (Human))
# testProtocol: In vitro inhibition of MAGL activity (inhibitor screening kit, 4-nitrophenylacetate)
# Type: biochemical
# setupConditions: human recombinant MAGL
# From the text: The inhibitory effect of the compounds on activity of human recombinant MAGL was also studied using a commercial inhibitor screening kit (Cayman Chemicals). In brief, MAGL hydrolyzes 4-nitrophenylacetate resulting in a yellow product, 4-nitrophenol with an absorbance at 405-412 nm, while the inhibitor will inhibit the MAGL activity and thus reduce the yellow signal. The absorbance of the yellow product can be analyzed using the plate reader. […]
pIC50: −log10 of the molar value.

>>> result("Cc1ccc(-c2cncc(-c3ncco3)c2)cc1OC(=O)NCC1CCCCC1")
"5.00 to 6.00"

# batch size: 3; output pIC50 per entry
1. CSc1ccc(OC(=O)NCc2ccccc2)cc1-c1cncc(-c2nnco2)c1
2. O=C(Oc1cccc(-c2cncc(-c3nnco3)c2)c1)N1CC2CCCC2C1 (stereo not drawn)
3. COc1cc(OC(=O)NC2CCCCCC2)cc(-c2cncc(-c3nnco3)c2)c1

Result:
< 5.00
5.00 to 6.00
4.30 to 5.00

# batch size: 7; output pIC50 per entry
1. O=C(NC1CCCCC1)Oc1cccc(-c2cncc(-c3ncno3)c2)c1
2. O=C(Oc1cccc(-c2cncc(-c3nnco3)c2)c1)N1CCCCCC1
3. O=C(Oc1cccc(-c2cncc(-c3nnco3)c2)c1)N1CC2(CCC2)C1
4. O=Cc1cncc(-c2cccc(OC(=O)NC3CCCC3)c2)c1
5. O=C(NCc1ccccc1)Oc1cccc(-c2cncc(-c3nnco3)c2)c1
6. O=C(NCc1ccccc1)Oc1cccc(-c2cncc(-c3cccs3)c2)c1
7. COc1ccc(OC(=O)NCc2ccccc2)cc1-c1cncc(-c2ccc[nH]2)c1

Result:
1: < 5.00; 2: < 5.00; 3: < 5.00; 4: < 5.00; 5: < 4.30; 6: < 5.00; 7: < 5.00

# batch size: 7; output pIC50 per entry
1. CCCCCCCCNC(=O)Oc1cccc(-c2cncc(-c3nnn[nH]3)c2)c1
2. COc1ccc(OC(=O)NC2CCCCCC2)cc1-c1cncc(-c2cccs2)c1
3. O=C(Nc1ccccc1)Oc1ccc(OC(F)(F)F)c(-c2cncc(-c3nnco3)c2)c1
4. COc1ccc(OC(=O)NCC2CCCCC2)cc1-c1cncc(-c2nnco2)c1
5. O=C(NC1CCCCCC1)Oc1cc(F)cc(-c2cncc(-c3nnco3)c2)c1
6. O=C(NC1CCCCC1)Oc1cccc(-c2cncc(-c3nnn[nH]3)c2)c1
7. COc1ccc(OC(=O)NC2CCCCC2)cc1-c1cncc(-c2nccs2)c1

Result:
["~5.00", "< 5.00", "< 5.00", "< 5.00", "< 5.00", "< 5.00", "< 5.00"]
